- System: RS4;11 cells
- RUN_DESCRIPTION: Cell viability assay (CellTiter-Glo) in RS4;11 cells
- Format: cell-based
- SETUP_CONDITIONS: RS4;11, B-ALL; cell viability, 3 days (Table 3); read-out: IC50
MEASURED_QUANTITY: IC50

Query: What does the record list as IC50 for Fc1cc(-c2cccc3ncc(-c4cnn(C5CCNCC5)c4)nc23)cc(F)c1CN1CCOCC1 [NVP-BSK805, reference compound] ?
Reply: > 10 µM

###

- Test system: KM12 cells
- RUN_DESCRIPTION: Cell viability assay (CellTiter-Glo) in KM12 cells
- Format: cell-based
- SETUP_CONDITIONS: Homo sapiens, 72 h, KM12, colorectal carcinoma, 3 days
Give measured IC50 for each item. Keep answers brief.

[
  {
    "COMPOUND": "O=C1CCC(N2C(=O)c3ccc(NCCCCCC(=O)N4CCC(n5cc(-c6cnc7cccc(-c8cc(F)c(CN9CCOCC9)c(F)c8)c7n6)cn5)CC4)cc3C2=O)C(=O)N1 (centres unmarked) [JA-189]",
    "IC50": "2370 nM"
  }
]

Attention now shifts to the item below.
Query: Lab note: need IC50 with KM12 cells for entry CS(=O)(=O)c1ccc(-c2cccc3nc(Nc4ccc(N5CCN(CC(=O)NCCCCCCCCNc6ccc7c(c6)C(=O)N(C6CCC(=O)NC6=O)C7=O)CC5)cc4)nn23)cc1 (centres unmarked) [JA-213] , please look it up.
Reply: 679 nM

The origin of these recorded values is patent US20230093099A1.
